Biological target: T1, full length human tau protein 2N4R (hT40) (human, UniProt P10636 1-758)
T1 construct: recombinant; also called T441
T1 sequence (P10636 other isoform, or with tags, fused parts or gaps limits assumed): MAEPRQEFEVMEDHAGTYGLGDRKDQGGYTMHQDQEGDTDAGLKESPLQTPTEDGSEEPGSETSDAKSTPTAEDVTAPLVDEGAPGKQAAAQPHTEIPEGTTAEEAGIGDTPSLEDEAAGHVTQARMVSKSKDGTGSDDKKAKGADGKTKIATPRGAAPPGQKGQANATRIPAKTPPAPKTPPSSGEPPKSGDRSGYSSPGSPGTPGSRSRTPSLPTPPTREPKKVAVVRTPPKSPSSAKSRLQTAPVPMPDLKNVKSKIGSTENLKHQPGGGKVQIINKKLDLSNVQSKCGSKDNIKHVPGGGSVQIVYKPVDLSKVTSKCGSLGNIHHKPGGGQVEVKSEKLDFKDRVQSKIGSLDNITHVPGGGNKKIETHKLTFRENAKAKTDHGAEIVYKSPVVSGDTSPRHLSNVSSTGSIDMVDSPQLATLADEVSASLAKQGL
Assay: sandwich ELISA, S1D12 mAb capture, scAb detection
outcome_measure: LoD chemiluminescence detection
Returns: string containing the number followed by the unit.

binder	outcome_measure	experimental_value
CA4 scAb (scFv, not shown: small tags and cut ends, scAb) scFv: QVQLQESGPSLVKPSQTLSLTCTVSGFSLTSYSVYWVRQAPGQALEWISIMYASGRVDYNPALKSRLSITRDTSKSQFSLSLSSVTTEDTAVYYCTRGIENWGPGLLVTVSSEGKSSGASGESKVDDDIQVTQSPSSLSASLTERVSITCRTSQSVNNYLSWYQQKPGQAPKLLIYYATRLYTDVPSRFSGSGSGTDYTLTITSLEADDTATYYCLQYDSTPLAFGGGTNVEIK	LoD chemiluminescence detection	0.37 ng/mL
S1G2 scAb (scFv, not shown: small tags and cut ends, scAb) scFv: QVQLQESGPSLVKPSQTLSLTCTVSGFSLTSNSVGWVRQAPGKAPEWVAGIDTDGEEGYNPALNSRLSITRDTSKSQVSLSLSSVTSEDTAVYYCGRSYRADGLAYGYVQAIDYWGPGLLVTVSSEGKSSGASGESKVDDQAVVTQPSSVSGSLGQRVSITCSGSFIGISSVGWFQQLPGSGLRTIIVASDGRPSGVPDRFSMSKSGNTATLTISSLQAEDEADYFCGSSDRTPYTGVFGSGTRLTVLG	LoD chemiluminescence detection	0.12 ng/mL

Shift focus to the following entry.
*Q* Query (binder): CB7 scAb (scFv, not shown: small tags and cut ends, scAb) scFv: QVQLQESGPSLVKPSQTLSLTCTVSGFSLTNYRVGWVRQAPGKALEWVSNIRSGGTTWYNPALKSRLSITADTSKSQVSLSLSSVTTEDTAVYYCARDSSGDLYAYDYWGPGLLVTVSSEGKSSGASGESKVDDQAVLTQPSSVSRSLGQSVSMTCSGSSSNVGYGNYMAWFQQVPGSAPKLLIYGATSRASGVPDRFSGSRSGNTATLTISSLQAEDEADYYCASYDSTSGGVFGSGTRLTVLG ; field requested: LoD chemiluminescence detection
*A* 3.33 ng/mL

Each recorded value in this set is attributed to patent US20250355001A1.
